Let's look at some compounds and their measured INHIBITION.
# Test system: Plasmodium berghei
# Assay Comment: Screen against P. berghei liver stage (PbLuc), transformed with Luciferase, at 2uM
# Assay type: functional, HepG2
# Experimental Context: tested at 2 uM
About 2,700 (4%) of roughly 68,000 compounds showed an effect of 50% or more. The full list was thinned out, with strong results kept by preference.
The response must be a number in % with no trailing unit.

# count of solved cases: 3
{"Compound": "COCCCN1CC2(CCC1=O)CCN(Cc1cc(C)no1)CC2", "INHIBITION / %": -7.23}
{"Compound": "CN(Cc1ccc(C(=O)Nc2sccc2C#N)cc1)Cc1ccno1", "INHIBITION / %": 26.74}
{"Compound": "COc1cccc2[nH]cc(CCNC(=O)N3CCCC3CO)c12 (stereo unspecified)", "INHIBITION / %": 1.41}

# query: INHIBITION of entry "Cc1cccc(C2(CNC(=O)CCNS(C)(=O)=O)CCCC2)c1"
3.9

# query: INHIBITION of entry "O=C(CN1CCC(c2ccccc2)CC1)NCc1cc2n(n1)CCNC2"
5.21

# query: INHIBITION of entry COCC1CN(C(=O)c2ccnnc2)Cc2c1cnn2C (stereo unspecified)
6.57
